target: β-glucuronidase (Escherichia coli)
Sequence (P05804 whole entry): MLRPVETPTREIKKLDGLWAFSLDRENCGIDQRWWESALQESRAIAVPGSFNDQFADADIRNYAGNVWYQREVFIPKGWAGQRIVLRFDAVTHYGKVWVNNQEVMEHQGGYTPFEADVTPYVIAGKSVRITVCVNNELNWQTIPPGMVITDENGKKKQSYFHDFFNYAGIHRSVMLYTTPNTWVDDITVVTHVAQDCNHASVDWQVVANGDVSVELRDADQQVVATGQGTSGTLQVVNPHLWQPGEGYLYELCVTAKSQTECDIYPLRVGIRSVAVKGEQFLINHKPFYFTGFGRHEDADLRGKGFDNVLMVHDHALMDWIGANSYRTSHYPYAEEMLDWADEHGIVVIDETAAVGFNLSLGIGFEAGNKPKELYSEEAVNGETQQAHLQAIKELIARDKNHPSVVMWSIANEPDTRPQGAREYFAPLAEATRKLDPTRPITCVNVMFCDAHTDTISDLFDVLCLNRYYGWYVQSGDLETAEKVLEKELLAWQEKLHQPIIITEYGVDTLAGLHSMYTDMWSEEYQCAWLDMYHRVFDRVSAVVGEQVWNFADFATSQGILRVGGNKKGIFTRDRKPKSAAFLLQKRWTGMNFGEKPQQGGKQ
quantity_measured: Ki (µM)
Numbers only, in µM.

Under β-glucuronidase (Escherichia coli): Ki value of COc1cc(/C=C/C(=O)O[C@H]2[C@H](O)[C@@H](CO)O[C@@]2(CO)O[C@H]2O[C@H](CO)[C@@H](OC(=O)c3ccccc3)[C@H](O)[C@H]2O)cc(OC)c1OC ?
13.4
